IC50 reference
# experimental.system: JAK3 (Homo sapiens)
# assay.name: Inhibition of a panel of kinases, in vitro HotSpot kinase assay: JAK3
# Type: biochemical
# conditions: E compounds, Table 17; read-out: IC50 JAK3

C[C@@H]1[C@H](NC(=O)c2ccc3oc(C4CC4)nc3c2)CCCN1c1cnc(C(N)=O)c(Nc2cnn(C)c2)n1
100 to 1000 nM
C=CC(=O)N1CCC[C@@H](Nc2nnc(C(N)=O)c(Nc3ccc(C4(C)CCN(C5CC5)CC4)cc3)n2)[C@H]1C
< 10 nM
C=CC(=O)N1CCC[C@@H](Nc2cnc(C(N)=O)c(Nc3ccc(C4CCN(C5CCCC5)CC4)cc3)n2)C1
< 10 nM
C=CC(=O)N[C@@H]1CCCN(c2nnc(C(N)=O)c(Nc3ccc(C4(C)CCN(C5CC5)CC4)cc3)n2)[C@@H]1C
10 to 100 nM
C[C@@H]1[C@H](NC(=O)c2ccc3c(c2)C(C)(C)OC3)CCCN1c1cnc(C(N)=O)c(Nc2cnn(C)c2)n1
1000 to 10000 nM

Please look up its IC50: C=CC(=O)N1CCC[C@@H](Nc2nnc(C(N)=O)c(Nc3ccc(-c4ncco4)cc3)n2)C1
< 10 nM

What do you have for C=CC(=O)N1CC[C@@H](N(C)c2cnc(C(N)=O)c(Nc3cnn(CCOC)c3)n2)C1 ?
< 10 nM

###

pIC50 reference
# experimental.system: EGFR (Homo sapiens, UniProt P00533)
# Sequence (P00533 25-1210): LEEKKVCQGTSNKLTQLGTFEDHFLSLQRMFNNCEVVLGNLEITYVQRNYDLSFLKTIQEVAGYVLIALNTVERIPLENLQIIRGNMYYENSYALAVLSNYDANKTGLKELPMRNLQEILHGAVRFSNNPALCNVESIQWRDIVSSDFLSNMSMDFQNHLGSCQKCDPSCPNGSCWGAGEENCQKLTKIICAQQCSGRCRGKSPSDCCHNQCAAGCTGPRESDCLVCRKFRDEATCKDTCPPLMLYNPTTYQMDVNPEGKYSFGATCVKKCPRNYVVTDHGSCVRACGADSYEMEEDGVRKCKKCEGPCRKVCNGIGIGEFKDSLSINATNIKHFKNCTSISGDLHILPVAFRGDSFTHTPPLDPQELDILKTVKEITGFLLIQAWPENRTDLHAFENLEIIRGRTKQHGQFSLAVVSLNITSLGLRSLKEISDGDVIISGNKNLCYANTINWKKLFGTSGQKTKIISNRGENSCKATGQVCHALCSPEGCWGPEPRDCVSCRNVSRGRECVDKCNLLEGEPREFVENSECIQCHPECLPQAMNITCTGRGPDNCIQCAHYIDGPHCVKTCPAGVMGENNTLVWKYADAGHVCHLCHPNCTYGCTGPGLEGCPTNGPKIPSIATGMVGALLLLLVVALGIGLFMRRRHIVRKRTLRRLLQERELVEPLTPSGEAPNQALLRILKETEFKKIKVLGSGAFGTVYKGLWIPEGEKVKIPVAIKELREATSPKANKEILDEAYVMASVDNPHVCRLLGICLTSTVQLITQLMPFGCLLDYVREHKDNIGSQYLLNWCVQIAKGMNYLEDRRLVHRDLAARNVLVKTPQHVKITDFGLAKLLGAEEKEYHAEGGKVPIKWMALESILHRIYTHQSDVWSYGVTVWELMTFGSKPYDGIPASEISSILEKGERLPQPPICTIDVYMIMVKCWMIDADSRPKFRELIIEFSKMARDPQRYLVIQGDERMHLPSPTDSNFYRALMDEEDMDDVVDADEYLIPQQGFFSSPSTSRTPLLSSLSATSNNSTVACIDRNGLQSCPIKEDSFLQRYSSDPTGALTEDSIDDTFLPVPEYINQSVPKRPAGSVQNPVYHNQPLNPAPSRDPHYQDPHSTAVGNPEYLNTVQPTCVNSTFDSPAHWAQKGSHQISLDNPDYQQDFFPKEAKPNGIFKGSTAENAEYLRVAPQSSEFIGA
# assay.name: Inhibition of a panel of kinases, in vitro HotSpot kinase assay: EGFR
# Format: biochemical
# conditions: D-compounds panel data; 1 μM ATP
pIC50: −log10 of the molar value.

COCCN(C)Cc1cc(Nc2nc(N3CCC[C@@H](NC(=O)c4ccc(C5CC5)cc4)[C@H]3C)cnc2C(N)=O)sn1 [Example D-269]
< 5.00

Consider the additional compound presented here.
Please look up its pIC50: C[C@@H]1[C@H](NC(=O)c2ccc(C3CC3)cn2)CCCN1c1cnc(C(N)=O)c(Nc2ccc(OC3CCN(C)CC3)cc2)n1 [Example D-297]
6.00 to 7.00

###

# experimental.system: JAK3 (Homo sapiens, UniProt P52333)
# Sequence (P52333 whole entry): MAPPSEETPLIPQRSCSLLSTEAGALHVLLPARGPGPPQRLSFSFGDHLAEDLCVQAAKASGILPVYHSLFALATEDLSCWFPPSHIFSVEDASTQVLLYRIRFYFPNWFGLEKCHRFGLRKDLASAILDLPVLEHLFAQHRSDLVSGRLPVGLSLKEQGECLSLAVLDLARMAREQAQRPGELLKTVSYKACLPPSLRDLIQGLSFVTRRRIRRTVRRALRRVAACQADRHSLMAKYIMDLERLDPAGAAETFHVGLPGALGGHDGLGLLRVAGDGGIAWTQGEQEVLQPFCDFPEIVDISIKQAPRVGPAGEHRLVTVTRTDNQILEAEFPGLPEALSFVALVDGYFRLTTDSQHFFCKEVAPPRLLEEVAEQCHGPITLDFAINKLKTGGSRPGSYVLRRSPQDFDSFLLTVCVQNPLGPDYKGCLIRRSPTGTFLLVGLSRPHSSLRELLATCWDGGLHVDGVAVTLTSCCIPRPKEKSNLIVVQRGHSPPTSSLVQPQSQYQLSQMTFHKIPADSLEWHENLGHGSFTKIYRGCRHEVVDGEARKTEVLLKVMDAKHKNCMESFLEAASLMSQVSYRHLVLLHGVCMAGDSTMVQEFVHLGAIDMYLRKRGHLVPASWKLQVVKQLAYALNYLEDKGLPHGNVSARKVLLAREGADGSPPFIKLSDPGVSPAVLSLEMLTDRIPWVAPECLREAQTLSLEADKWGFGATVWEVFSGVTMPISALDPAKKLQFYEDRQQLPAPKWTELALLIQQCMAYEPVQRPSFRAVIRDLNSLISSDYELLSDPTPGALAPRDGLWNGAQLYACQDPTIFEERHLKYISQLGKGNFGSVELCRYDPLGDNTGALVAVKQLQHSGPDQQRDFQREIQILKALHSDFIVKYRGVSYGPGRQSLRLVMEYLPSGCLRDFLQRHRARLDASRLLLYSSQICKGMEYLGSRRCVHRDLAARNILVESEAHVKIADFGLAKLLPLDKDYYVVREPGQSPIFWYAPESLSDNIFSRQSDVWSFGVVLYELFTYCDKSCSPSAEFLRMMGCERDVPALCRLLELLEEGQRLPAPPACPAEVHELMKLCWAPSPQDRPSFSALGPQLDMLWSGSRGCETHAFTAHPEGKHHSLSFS
# assay.name: Inhibition of a panel of kinases, in vitro HotSpot kinase assay: JAK3
# Type: biochemical
# conditions: D-compounds panel data; 1 μM ATP; read-out: IC50 JAK3
reported.endpoint: IC50

Known IC50 results, listed for orientation:
C[C@@H]1[C@H](NC(=O)c2ccc(C(C)(C)C)cc2)CCCN1c1cnc(C(N)=O)c(Nc2ccc(N3CCN(C)CC3)cc2)n1
1000 to 10000 nM
Cc1cc(Nc2cc(N3CCC[C@@H](NC(=O)N(C)C)[C@H]3C)cnc2C(N)=O)sn1
1000 to 10000 nM
C[C@@H]1[C@H](NC(=O)c2ccc3c(c2)CCC(C)(C)O3)CCCN1c1cnc(C(N)=O)c(Nc2cnn(C)c2)n1
1000 to 10000 nM
Cn1cc(Nc2nc(N3CC[C@@H](O)[C@H](NC(=O)c4ccc(C5CC5)cc4)C3)cnc2C(N)=O)cn1 (racemic)
> 10000 nM

Report IC50 for COCCN(C)c1ccc(C(=O)N[C@@H]2CCCN(c3cnc(C(N)=O)c(Nc4cnn(C)c4)n3)[C@@H]2C)cc1 tested on JAK3 (Homo sapiens, UniProt P52333).
100 to 1000 nM

What do you have for C[C@@H]1[C@H](NC(=O)c2ccc(C3CC3)cn2)CCCN1c1cnc(C(N)=O)c(Nc2cnn(C)c2)n1 ?
1000 to 10000 nM

What do you have for C[C@@H]1[C@H](NC(=O)c2ccc(SC(F)(F)F)cc2)CCCN1c1cnc(C(N)=O)c(Nc2cnn(C)c2)n1 ?
1000 to 10000 nM

What do you have for C[C@@H]1[C@H](NC(=O)c2ccc(N(C)CCO)cc2)CCCN1c1cnc(C(N)=O)c(Nc2cnn(C)c2)n1 ?
100 to 1000 nM

meta.source: patent US20210070748A1
